Measured values drawn from ChEMBL document CHEMBL5113460 for this set.

inhibition values for the compounds below.
Target: Prostaglandin G/H synthase 2 (Homo sapiens)
Assay: Inhibition of COX-2 (unknown origin) at 30 uM
quantity: inhibition (%)

INSERT INTO assay_data (query_smiles, numeric_value) VALUES
  ('COCCOc1ccc(NC(=O)c2ccccc2Nc2cccc(Cl)c2C)cc1', 36.5),
  ('Cc1c(Cl)cccc1Nc1ccccc1C(=O)Nc1ccc(N2CCNCC2)cc1', 100),
  ('Cc1c(Cl)cccc1Nc1ccccc1C(=O)Nc1ccc(N2CCN(C(C)C)CC2)cc1', 83.7),
  ('CCCN1CCN(c2ccc(NC(=O)c3ccccc3Nc3cccc(Cl)c3C)cc2)CC1', 81),
  ('Cc1c(Cl)cccc1Nc1ccccc1C(=O)Nc1ccc(OCCNC(=O)OC(C)(C)C)cc1', 28),
  ('Cc1c(Cl)cccc1Nc1ccccc1C(=O)Nc1ccc(N2CCN(S(C)(=O)=O)CC2)cc1', 34.2),
  ('Cc1c(Cl)cccc1Nc1ccccc1C(=O)Nc1ccc(N2CCN(C(=O)OC(C)(C)C)CC2)cc1', 41.9),
  ('CCCCN1CCN(c2ccc(NC(=O)c3ccccc3Nc3cccc(Cl)c3C)cc2)CC1', 58.3),
  ('Cc1c(Cl)cccc1Nc1ccccc1C(=O)Nc1ccc(N2CCOCC2)cc1', 42.9),
  ('Cc1c(Cl)cccc1Nc1ccccc1C(=O)Nc1ccc(N2CCN(C)CC2)cc1', 100),
  ('Cc1c(Cl)cccc1Nc1ccccc1C(=O)Nc1ccc(OCCO)cc1', 47.9);

----------
Target: Prostaglandin G/H synthase 2 (Homo sapiens)
Test: Inhibition of COX-2 (unknown origin) at 3 uM
quantity: inhibition (%)

INSERT INTO measurements (query_smiles, quantity, readout_units, numeric_value) VALUES
  ('CCN1CCN(c2ccc(NC(=O)c3ccccc3Nc3cccc(Cl)c3C)cc2)CC1', 'inhibition', '%', 37.1),
  ('Cc1c(Cl)cccc1Nc1ccccc1C(=O)Nc1ccc(N2CCN(C)CC2)cc1', 'inhibition', '%', 54.4),
  ('Cc1c(Cl)cccc1Nc1ccccc1C(=O)Nc1ccc(S(N)(=O)=O)cc1', 'inhibition', '%', 42);
